Reference for the values: ChEMBL document CHEMBL4513216

experiment: Toxicity liver stage against HepG2, at 10uM; assay type: cell-based; design: test concentration 10 uM, cell line HepG2-A16-CD81EGFP; details: human, HepG2-A16-CD81EGFP cells; read-out: INHIBITION
MEASUREMENT KIND: cytotoxicity at 10 µM (%)
# unit: % | format: bare number

{"COMPOUND": "CC(NC(=O)Cn1cc(-c2ccccc2)cn1)C1CC1 (configuration not stated)", "TEST RESULT": 1.36}

Which cytotoxicity at 10 µM value is on record for O=C(CCN1C(=O)CCC1=O)NCC1(c2c(F)cccc2F)CCCC1 ?
-9.47

Which cytotoxicity at 10 µM value is on record for O=C1OCCC1N1CCN(c2ccc(O)cc2)CC1 (configuration not stated) ?
-1.29

====

Some molecules, each annotated with its measured cytotoxicity at 10 µM.
experiment: Toxicity liver stage against HepG2, at 10uM; type: cell-based; design: test concentration 10 uM, cell line HepG2-A16-CD81EGFP; conditions: human, HepG2-A16-CD81EGFP cells; read-out: INHIBITION
# unit: % | format: bare number

// solved cases for cytotoxicity at 10 µM follow
{"MOLECULE": "OCCN(Cc1ccccc1)Cc1nc(-c2ccc3c(c2)OCO3)no1", "TEST RESULT": 4.74}
{"MOLECULE": "O=C1CC[C@H]2CN(C3CCOCC3)CC[C@H]2N1CCC1=CCCCC1", "TEST RESULT": -4.76}
{"MOLECULE": "COc1ccccc1CNC(C)c1cnc2cc(C)nn2c1C (stereo unspecified)", "TEST RESULT": 8.32}

Which cytotoxicity at 10 µM value is on record for COCCN1CCC12CCN(C(=O)c1ccc3[nH]ccc3c1)C2 (stereo unspecified) ?
-82.6

Which cytotoxicity at 10 µM value is on record for Cc1cc(C)n(CC(C)NCCN2CCc3ccccc32)n1 (stereo unspecified) ?
-7.73

Which cytotoxicity at 10 µM value is on record for Cn1nc(N2CCCC(C(=O)Nc3nccs3)C2)ccc1=O (stereo unspecified) ?
3.19

====

experiment: Toxicity liver stage against HepG2, at 10uM; format: cell-based; design: test concentration 10 uM, cell line HepG2-A16-CD81EGFP; details: human, HepG2-A16-CD81EGFP cells; read-out: INHIBITION
Some molecules, each annotated with its measured cytotoxicity at 10 µM.
# unit: % | format: bare number

{"MOLECULE": "Cc1cccc(CN2CCN(C(=O)[C@@H]3CSCN3C)CC2)c1", "UNITS SYMBOL": "%", "TEST RESULT": -8.56}
{"MOLECULE": "CCS(=O)(=O)NC[C@]12COC[C@H]1CN(Cc1ccncc1)C2", "UNITS SYMBOL": "%", "TEST RESULT": 6.01}
{"MOLECULE": "CN(C)c1cc(CNC(=O)NCC2(C)CCCS2)ccn1 (stereo unspecified)", "UNITS SYMBOL": "%", "TEST RESULT": 6.64}
{"MOLECULE": "CC(NC(=O)CCN1CCOC1=O)(c1ccccc1)c1ccccc1", "UNITS SYMBOL": "%", "TEST RESULT": -10}
{"MOLECULE": "O=C(c1ccccn1)N1CCC2(CC1)COC(COCC1CC1)C2 (stereo unspecified)", "UNITS SYMBOL": "%", "TEST RESULT": 5.14}

For the next question, use this molecule.
Which cytotoxicity at 10 µM value is on record for CC(C)CC(Cc1cccc(Br)c1)C(=O)O (stereo unspecified) ?
13.8
